// reported IC50 for each item listed
- system under test: Tyrosine-protein kinase JAK3 (Homo sapiens)
- Sequence (P52333 whole entry): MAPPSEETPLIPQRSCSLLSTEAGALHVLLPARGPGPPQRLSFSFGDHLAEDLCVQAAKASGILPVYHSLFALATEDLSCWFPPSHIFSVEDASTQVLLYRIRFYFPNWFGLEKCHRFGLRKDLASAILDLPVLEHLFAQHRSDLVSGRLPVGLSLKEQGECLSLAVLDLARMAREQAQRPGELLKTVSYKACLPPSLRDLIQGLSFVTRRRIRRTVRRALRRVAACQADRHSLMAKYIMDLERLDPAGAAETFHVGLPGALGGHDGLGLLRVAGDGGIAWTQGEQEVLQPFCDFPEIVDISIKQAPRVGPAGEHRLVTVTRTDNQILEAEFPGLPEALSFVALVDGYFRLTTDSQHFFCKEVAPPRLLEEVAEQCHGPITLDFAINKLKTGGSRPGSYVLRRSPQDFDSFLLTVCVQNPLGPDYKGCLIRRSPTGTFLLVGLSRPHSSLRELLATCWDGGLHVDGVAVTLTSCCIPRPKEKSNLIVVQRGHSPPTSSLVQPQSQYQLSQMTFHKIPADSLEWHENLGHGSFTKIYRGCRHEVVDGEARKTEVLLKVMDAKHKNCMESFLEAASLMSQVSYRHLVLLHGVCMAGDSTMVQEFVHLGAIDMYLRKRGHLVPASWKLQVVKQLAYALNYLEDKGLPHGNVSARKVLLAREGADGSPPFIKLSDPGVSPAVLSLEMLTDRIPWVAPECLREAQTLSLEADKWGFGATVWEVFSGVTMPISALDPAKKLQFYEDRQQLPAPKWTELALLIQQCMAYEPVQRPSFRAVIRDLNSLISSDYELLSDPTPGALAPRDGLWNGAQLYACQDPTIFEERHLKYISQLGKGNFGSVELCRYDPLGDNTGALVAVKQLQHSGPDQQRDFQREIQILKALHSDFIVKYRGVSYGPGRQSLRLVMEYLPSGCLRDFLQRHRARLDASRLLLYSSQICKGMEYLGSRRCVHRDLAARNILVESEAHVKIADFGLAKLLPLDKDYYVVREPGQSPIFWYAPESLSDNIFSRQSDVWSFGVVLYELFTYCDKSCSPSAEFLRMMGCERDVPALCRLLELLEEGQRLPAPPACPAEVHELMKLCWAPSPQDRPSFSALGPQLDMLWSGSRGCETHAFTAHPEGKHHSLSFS

- smiles str: "NC(=O)/C=C/c1ccc(-c2nc3cnc4[nH]ccc4c3n2C2CCCCC2)o1"
  IC50: "129 nM"
- smiles str: "CN(C)C(=O)C(C#N)=Cc1ccc(-c2nc3cnc4[nH]ccc4c3n2C2CCCCC2)cc1"
  IC50: "571 nM"
- smiles str: "N#CC(C#N)=Cc1ccc(-c2nc3cnc4[nH]ccc4c3n2C2CCCCC2)o1"
  IC50: "4 nM"
- smiles str: "CN(C)C(=O)C(C#N)=Cc1ccc(-c2nc3cnc4[nH]ccc4c3n2C)o1"
  IC50: "368 nM"
- smiles str: "N#CC(C#N)=Cc1ccc(-c2nc3cnc4[nH]ccc4c3n2C2CCCCC2)cc1"
  IC50: "30 nM"
- smiles str: "CN(C)C(=O)CCc1ccc(-c2nc3cnc4[nH]ccc4c3n2C2CCCCC2)cc1"
  IC50: "642 nM"
- smiles str: "N#C/C=C/c1ccc(-c2nc3cnc4[nH]ccc4c3n2C2CCCCC2)o1"
  IC50: "27 nM"
- smiles str: "CN1CCN(C(=O)C(C#N)=Cc2ccc(-c3nc4cnc5[nH]ccc5c4n3C3CCCCC3)o2)CC1"
  IC50: "14 nM"
- smiles str: "CNC(=O)C(C#N)=Cc1ccc(-c2nc3cnc4[nH]ccc4c3n2C2CCCCC2)o1"
  IC50: "23 nM"
- smiles str: "CN(C)C(=O)C(C#N)=Cc1cccc(-c2nc3cnc4[nH]ccc4c3n2C2CCCCC2)c1"
  IC50: "205 nM"
- smiles str: "NC(=O)CCc1ccc(-c2nc3cnc4[nH]ccc4c3n2C2CCCCC2)o1"
  IC50: "59 nM"
- smiles str: "N#C/C=C/c1ccc(-c2nc3cnc4[nH]ccc4c3n2C2CCCCC2)cc1"
  IC50: "390 nM"
- smiles str: "N#C/C=C/c1cccc(-c2nc3cnc4[nH]ccc4c3n2C2CCCCC2)c1"
  IC50: "135 nM"
- smiles str: "NC(=O)CCc1cccc(-c2nc3cnc4[nH]ccc4c3n2C2CCCCC2)c1"
  IC50: "490 nM"
- smiles str: "CN(C)C(=O)CCc1cccc(-c2nc3cnc4[nH]ccc4c3n2C2CCCCC2)c1"
  IC50: "678 nM"
- smiles str: "CN(C)C(=O)C(C#N)=Cc1ccc(-c2nc3cnc4c(ccn4C)c3n2C2CCCCC2)o1"
  IC50: "> 10000 nM"
- smiles str: "N#CCCc1ccc(-c2nc3cnc4[nH]ccc4c3n2C2CCCCC2)o1"
  IC50: "129 nM"
- smiles str: "NC(=O)CCc1ccc(-c2nc3cnc4[nH]ccc4c3n2C2CCCCC2)cc1"
  IC50: "499 nM"
- smiles str: "N#CC(C#N)=Cc1cccc(-c2nc3cnc4[nH]ccc4c3n2C2CCCCC2)c1"
  IC50: "11 nM"
- smiles str: "NC(=O)/C=C/c1ccc(-c2nc3cnc4[nH]ccc4c3n2C2CCCCC2)cc1"
  IC50: "> 1000 nM"

Provenance of the data: ChEMBL document CHEMBL4118225
